Recorded values, source paper PMC13360575.

# reported kon; entries follow
- Assay Target: chicken IgY (chicken)
- Assay Notes: BLI; Octet, SAX (streptavidin) biosensors; recombinant Fabs against IgY; KD from a kinetic 1:1 model, global fit over multiple concentrations (partial fits averaged for 3 low-affinity Fabs)
The reply should contain only the number, in M⁻¹ s⁻¹.

Binder	Property Name	Result Value
clone 2.1 Fab TA_28 (Fab, V domains shown) VH: EVQLQESGPSLVKPSQTLSLTCSVTGDSITSGYWNWIRKFPGNKLEYMGYISYSGGTYYNPSLKSRISITRDTSKNQYYLQLNSVTTEDTATYYCARDFDVWGAGTTVTVSS VL: DIVMTQSQKFMSTSVGDRVSVTCKASQNVGTNVAWYQQKPGQSPKALIYSASYRYSGVPDRFTGSGSGTDFTLTISNVQSEDLAEYFCQQYNSYPLTFGSGTKLEIK	kon	140000

Now consider a different binder.
The binder listed as clone 2.1 Fab CB_02 (clonal burst) (Fab, V domains shown) VH: EVQLQESGPSLVKPSQTLSLTCSVTGDSITSGYWNWIRKFPGNKLEYMGYISYSGSTYYNPSLKSRISITRDTSKNQYYLQLNSVTTEDTATYYCGRDFDVWGAGTTVTVSS VL: DIVMTQSQKFMSTSVGDRVSVTCKASQNVGTNVGWYQQKPGQSPKALIYSASYRYSGVPDRFTGSGSGTDFTLTISNVQSEDLAEYFCQQYNSYPLTFGSGTKLEIK has a reported kon of 244000
